Assay: Pharmacokinetic profiling in mouse
Type: in vivo
Conditions: plasma, sc, mice, subcutaneous injection (8 mg/kg stated for Example compound 12), 8 hours after injection

{"Compound": "CCn1nc(C)cc1C(=O)N=c1n(C)c2cc(C(N)=O)ccc2n1CCC(CCn1c(=NC(=O)c2cc(C)nn2CC)n(C)c2cc(C(N)=O)ccc21)OCC(=O)NCCOCCOCCOCCOCCC(=O)NCCOCCOCCOCCOCCNc1cccc2c1C(=O)N(C1CCC(=O)NC1=O)C2=O (stereo not shown) [Example compound 7]", "concentration at 8 h": "~100 nM"}
